# test method notes: soluble on expression in E. coli; label from the status in PepcDB or PDB records
property name: soluble on expression in E. coli

seq string	soluble on expression in E. coli
MHRRGVGAGAIAKKKLAEAKYKERGTVLAEDQLAQMSKQLDMFKTNLEEFASKHKQEIRKNPEFRVQFQDMCATIGVDPLASGKGFWSEMLGVGDFYYELGVQIIEVCLALKHRNGGLITLEELHQQVLKGRGKFAQDVSQDDLIRAIKKLKALGTGFGIIPVGGTYLIQSVPAELNMDHTVVLQLAEKNGYVTVSEIKASLKWETERARQVLEHLLKEGLAWLDLQAPGEAHYWLPALFTDLYSQEITAEEAREALP	soluble
MNTNREPRFHDKVQAACYALMLDEHGVPADTGTLLYTKNAAVDRSEASGDLSPAKEFSIGRGFLEFVVRERNHLAALEASDGPPTGYEADAKCDYCFEQDTCMVVSGRLDQESKAGRIGDPVPAEERAYFDELYDAIEAERGAIHDEYRKLWEQSPDERAADDRAVVGLSPAEQTELPDGRWRLTATRPGSAASKIREGDRVLASDGDPVAGRAEMARVERLDADRVEVTTDEPVSLCRLDVYPSELEHHHHHH	soluble
MGSDKIHHHHHHMEHFLYRLNFSTALHIGKDAGGPSLDDGQMIIHADTLFAALCCEAVRGGRITQLVKYFADGILSISDALPYAGDEIFLPRPVLFTENRKRAGDSALAKALKNKDYIPLSFFGDYLKSMQQLDFNLESLKSESDFGYLTTLTRVAIKGNSPPLPYHVAAWRFADGCGLYIIVRSEQEEARTMFASLLAELGLSGIGGKQSSGWGKFEVKPGPVPDELLRLLEDKQAEYQMLMGTALPVDNELDTVLLNGWYKLLRRGGFIRSESYAARQMKKKTIYMLASGSCLRSRFKGAMLDLSDNGAHPVWRCGNTLFVGVTI	not soluble
MSLNREFDVTAPNQVWCGDITYIWAQGKWHYLAVVMDLYARRVLGWAFSKKSDTDLVIKALDMAYEQRGKPQGLLFHSDQGAQYGSRQFRKRLWRYRVRQSMSRRGNCYDNSPMARVFRSLKTEWIPAVGYMTAQEAQGDISHYLMHRYNRVRPHQFNDGLAPAQYEKTLTSEGHHHHHH	not soluble
MQKKYYEDSHQDSYLLGVKEKDEVLLTALMRKIKNHTGDVYEIMGGPLVDFENENNNQIIAFFLKELHKYLKKQHAYYLRIVPNEKTQRVENNGKVVNYDLKNYSSLYFAEGFIYRSFEQVGYGFATPHYEYQKRIEGLNKKTLFQSYSKKTQYSIKKTYEFGITTRNISYDELEMFHENTTKTAKRLGFYDKELSYYQSVYRTFGDNAKFMIAEINLSDYIGHFQEIIRNLKDKIDQMILIDSKREKPTKTRQIKELRSQVEQHEKRIVQAKKLIEQYGKKINLAGALFFIQPQEVSYMFSYTNAEFKNFYGPYRTQADMLEFALKEKVPVYNFYGVSGDRSGHDGVYEFKKGFQGYMVDNMGAFILPINKFRYQFLQTIKKIIRRR	not soluble
MVGSLLPSHATEFEKRLADACDFHQDVDGAVLGISRAKLITRPPRFLPWLIEEYGLGELTPYVPNLYDLIDQGLAWQRLRGSVAAIELGLKWLELSARFTPAWSGRAWWNSFQLDFDQLPEQSSLEAIEAIVDLSKSFRSDFRRSTYGYDVEATEGDMSHLDDSMLDFESGVRLTARDTLFSFGRTTQIKHTLTKEEGKLIGNWIDDVDEELSWNQIDYPWELANFPWCSVKKHERDILIAKWFQNRPLYLALRDLDNTLIGYRRCYAVQPVEQAVEGVYSHCGNRFNPSPTGTMLFLAARTDFEDVENKQAASVPLLVHGSLVEQTPLGKLWLGADELRGGVEILKTPINIPLRADVREQFKILLRF	not soluble
MRKLVVGSRRSKLALTQSQQFIDKLKAVEPNLEIEIKEIVTKGDRIVDKQLSKVGGKGLFVKEIQHELFEKNIDMAIHSLKDVPSVIPEGLTLGCIPDRELPFDAYISKTHTPLSQLPEGSIIGTSSLRRGAQILSKYPNLEIKWIRGNIDTRLEKLQTEDYDAIILAAAGLRRMGWSDDIVTSYLDRDTLLPAIGQGALGIECRSDDEELLTLLSKVHNDEVAKCVTAERTFLAEMDGSCQVPIAGYATISDQNEIEFTGLIMTPDGKERFEYTMNGTDPVELGKTVSNKLKEQGAYEIIKRLNEQH	not soluble
MHNIYFYKDKNGNEPVFDYMRELTSKKGKDSRIKLNKINDYIELLSQHGTRAGEPYIKHLDAEIWELRPLRDRILFVAWMDGSFVLLHHFMKRTQKTPKREIEQAKRELADLKERGLDNEK	not soluble

What does the data say about its soluble on expression in E. coli? Entry: SLNVVLIVEDEILEQEFLKTMVLGELSPEDKVLTTESGIQAVQLAKQHRPNIIIMDLMIAEVDGLTAIQDIRKFLPNACITILSAYSDFSYAQKAINLKVFEYLLKPVKPSAFKEIFKKMLEIAHEESMISEPIEKTFLPLQEEHQSFIQESVTYIQEHFKEKLTLEMTASRVFMNPKYFSRVFKKEMGISFTEFIIQLRIQYACRLLETTNYPAYRISSECGFSDPSYFNRVFCAQLNMTPQTYRKNSQAQQHEG soluble

Requested field: soluble on expression in E. coli. Item: MGSDKIHHHHHHMYPNLTSEQALLILQSARNPDKAYDLFAQAAEVRDKVFGKRLWWSSGSGGIFPCLVKPRCSYCTYYTEKLFPTDVLLTGLELIESLGIQQFHISGGTDLDEGYDEQLLELVQAIKTRSGLKLEINLGPSFRQETVLELKKLGIDSVTSSLECNTPAIFARAKPGDSLERRRELLHHCEEADMPSRSMMLLGLGETDQERIEHLFYLQQFKKLYQLRLSRFMPFPGTLYKDRSRCSPWDTALITAMARLILPNLEISLAAGNSNDDIPLWYLAGGGSQLLGVSITRKEPPATPDVDVYAIGEGAYVVDKRQQVARVLEGMNLEVTCEMPDYRALQSQF not soluble

Cited source for all entries: the DeepSol protein solubility set
